Task for the reader: assign each of the following binders its reported pKd.
# experimental system: T1, human vascular endothelial growth factor receptor-2 Fc chimera (KDR-Fc) (human, UniProt P35968 20-764)
# T1 construct: range 1-764; also called human VEGFR-2; hKDR; not shown: human IgG1 Fc
# T1 sequence (P35968 20-764 limits assumed, change not shown, form in doubt): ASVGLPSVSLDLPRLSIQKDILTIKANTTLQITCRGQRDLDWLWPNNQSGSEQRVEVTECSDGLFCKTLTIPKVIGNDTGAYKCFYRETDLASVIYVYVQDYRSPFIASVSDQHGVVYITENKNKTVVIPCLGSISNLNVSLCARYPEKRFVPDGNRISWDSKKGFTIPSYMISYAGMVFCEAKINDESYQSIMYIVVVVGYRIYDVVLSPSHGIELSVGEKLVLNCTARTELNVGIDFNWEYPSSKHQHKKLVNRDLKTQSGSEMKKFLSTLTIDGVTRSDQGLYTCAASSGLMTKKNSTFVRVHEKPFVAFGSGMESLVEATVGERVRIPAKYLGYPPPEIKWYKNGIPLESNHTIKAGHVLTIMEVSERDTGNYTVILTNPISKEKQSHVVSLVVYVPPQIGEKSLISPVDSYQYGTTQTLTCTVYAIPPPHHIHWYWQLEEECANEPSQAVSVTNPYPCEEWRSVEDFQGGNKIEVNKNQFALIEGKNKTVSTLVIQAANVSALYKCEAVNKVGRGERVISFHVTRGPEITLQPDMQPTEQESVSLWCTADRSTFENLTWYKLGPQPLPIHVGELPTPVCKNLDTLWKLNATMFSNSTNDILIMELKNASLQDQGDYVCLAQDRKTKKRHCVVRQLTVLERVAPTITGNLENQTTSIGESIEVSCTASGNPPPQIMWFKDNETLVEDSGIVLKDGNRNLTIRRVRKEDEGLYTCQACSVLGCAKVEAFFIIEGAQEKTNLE
# method description: radioactive equilibrium binding (assay not given)
Note: pKd values are expressed as the negative base-10 logarithm of concentration in M.

-- ask Item K3 (designed binder, Del 1-8 10Fn3 clone; Flag tag of the assay form not included) EVVAATPTSLLISWRHPHFPTRYYRITYGETGGNSPVQEFTVPLQPPTATISGLKPGVDYTITGYAVTAGWDDHELFIPISINYRT has what recorded pKd?
-- reply 8.94

-- ask Which pKd value belongs to K13 (designed binder, Del 1-8 10Fn3 clone; Flag tag of the assay form not included) EVVAATPTSLLISWRHPHFPTRYYRITYGETGGNSPVQEFTVPLQPPTATISGLKPGVDYTITGYAVTLALKGHELLTPISINYRT ?
-- reply 9.24

-- ask Which value of pKd has been reported for K4 (designed binder, Del 1-8 10Fn3 clone; Flag tag of the assay form not included) EVVAATPTSLLISWRHPHFPTRYYRITYGETGGNSPVQEFTVPLQPPTATISGLKPGVDYTITGYAVTAGYNDQILMTPISINYRT in the records?
-- reply 8.71

-- ask Need pKd of E29 (designed binder, Del 1-8 10Fn3 clone; Tags not included) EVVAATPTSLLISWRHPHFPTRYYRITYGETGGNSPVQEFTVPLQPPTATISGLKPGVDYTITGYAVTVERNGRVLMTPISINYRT , thanks.
-- reply 8.82

-- ask Looking for the measured pKd of VR28 (designed binder, 10Fn3 clone with WT N-terminus; tag not included; also called VR28 (I69T); VR28 clone) VSDVPRDLEVVAATPTSLLISWRHPHFPTRYYRITYGETGGNSPVQEFTVPLQPPTATISGLKPGVDYTITGYAVTVAQNDHELITPISINYRT , can you help?
-- reply 7.96

-- ask Data request, read-out pKd, for E3 (designed binder, Del 1-8 10Fn3 clone; Flag tag of the radioactive-assay form not included) EVVAATPTSLLISWRHPHFPTRYYRITYGETGGNSPVQEFTVPLQPPTATISGLKPGVDYTITGYAVTDGRNDRKLMVPISINYRT
-- reply 9.02

-- ask // lookup pKd for E5 (designed binder, Del 1-8 10Fn3 clone; Flag tag of the radioactive-assay form not included) EVVAATPTSLLISWRHPHFPTRYYRITYGETGGNSPVQEFTVPLQPPTATISGLKPGVDYTITGYAVTDGQNGRLLNVPISINYRT
-- reply 9.40

-- ask Reported pKd for K1 (designed binder, Del 1-8 10Fn3 clone; tag not included) EVVAATPTSLLISWRHPHFPTRYYRITYGETGGNSPVQEFTVPLQPPTATISGLKPGVDYTITGYAVTMGLYGHELLTPISINYRT : what is it?
-- reply 9.26

-- ask Requested field: pKd. Item: K10 (designed binder, Del 1-8 10Fn3 clone; Flag tag of the assay form not included) EVVAATPTSLLISWRHPHFPTRYYRITYGETGGNSPVQEFTVPLQPPTATISGLKPGVDYTITGYAVTTGPNDRLLFVPISINYRT
-- reply 9.24

-- ask Fill in: pKd of K8 (designed binder, Del 1-8 10Fn3 clone; Flag tag of the assay form not included) EVVAATPTSLLISWRHPHFPTRYYRITYGETGGNSPVQEFTVPLQPPTATISGLKPGVDYTITGYAVTVTHNGHPLMTPISINYRT is ___
-- reply 8.48

-- ask Bench note: what pKd did E26 (designed binder, Del 1-8 10Fn3 clone; Tags not included) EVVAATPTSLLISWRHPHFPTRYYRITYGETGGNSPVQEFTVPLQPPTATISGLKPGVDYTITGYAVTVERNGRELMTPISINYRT show?
-- reply 8.78

-- ask // lookup pKd for K14 (designed binder, Del 1-8 10Fn3 clone; Flag tag of the assay form not included) EVVAATPTSLLISWRHPHFPTRYYRITYGETGGNSPVQEFTVPLQPPTATISGLKPGVDYTITGYAVTREENDHELLIPISINYRT
-- reply 9.24

-- ask Fill in the blank: the reported pKd of K12 (designed binder, Del 1-8 10Fn3 clone; Flag tag of the assay form not included) EVVAATPTSLLISWRHPHFPTRYYRITYGETGGNSPVQEFTVPLQPPTATISGLKPGVDYTITGYAVTDVYNDHEIKTPISINYRT is ____.
-- reply 9.21

-- ask # pKd lookup, item E28 (designed binder, Del 1-8 10Fn3 clone; Flag tag of the radioactive-assay form not included) EVVAATPTSLLISWRHPHFPTRYYRITYGETGGNSPVQEFTVPLQPPTATISGLKPGVDYTITGYAVTLERNGRELMVPISINYRT
-- reply 8.79

-- ask Query: pKd; subject: K5 (designed binder, Del 1-8 10Fn3 clone; Flag tag of the assay form not included) EVVAATPTSLLISWRHPHFPTRYYRITYGETGGNSPVQEFTVPLQPPTATISGLKPGVDYTITGYAVTMGPNDNELLTPISINYRT
-- reply 8.81

-- ask Form field: reported pKd of K9 (designed binder, Del 1-8 10Fn3 clone; Flag tag of the assay form not included) EVVAATPTSLLISWRHPHFPTRYYRITYGETGGNSPVQEFTVPLQPPTATISGLKPGVDYTITGYAVTFGLYGKELLIPISINYRT
-- reply 8.74
